# Assay target: T1, GARS, endogenous in H929 multiple myeloma cells (human, UniProt P41250 37-739, limits assumed)
# T1 construct: Native protein pulled down from H929 lysates; also called Glycyl-tRNA synthetase; GlyRS
# T1 sequence: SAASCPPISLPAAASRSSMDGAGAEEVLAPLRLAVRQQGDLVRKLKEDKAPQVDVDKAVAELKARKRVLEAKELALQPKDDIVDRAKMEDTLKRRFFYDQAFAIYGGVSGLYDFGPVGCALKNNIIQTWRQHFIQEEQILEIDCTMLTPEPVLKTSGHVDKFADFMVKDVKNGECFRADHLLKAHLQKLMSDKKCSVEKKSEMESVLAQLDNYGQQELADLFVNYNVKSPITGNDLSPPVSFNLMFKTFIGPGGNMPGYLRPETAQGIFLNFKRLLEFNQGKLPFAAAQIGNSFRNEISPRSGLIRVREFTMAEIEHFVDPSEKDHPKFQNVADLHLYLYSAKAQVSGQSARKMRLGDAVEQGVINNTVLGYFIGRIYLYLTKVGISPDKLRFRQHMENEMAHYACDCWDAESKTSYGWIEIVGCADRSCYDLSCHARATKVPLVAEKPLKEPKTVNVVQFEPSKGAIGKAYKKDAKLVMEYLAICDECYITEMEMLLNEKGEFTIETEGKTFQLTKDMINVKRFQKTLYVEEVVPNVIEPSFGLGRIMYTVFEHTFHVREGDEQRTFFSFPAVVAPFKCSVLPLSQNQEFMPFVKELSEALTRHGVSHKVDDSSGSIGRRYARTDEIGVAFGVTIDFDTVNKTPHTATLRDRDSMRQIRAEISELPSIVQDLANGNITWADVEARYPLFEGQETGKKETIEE
# Test: flow cytometry, H929 + NT Green siRNA; None 1.35; surface target GARS putative
Parameter: Cells stained (%). Scope: all listed entries.
Provide the reading as a plain figure in %.

Example entries begin here.
HW-8 chimeric rabbit-human IgG1 LA/LA/PG (antibody, V domains shown, Fc-silenced (L234A/L235A/P329G) IgG1, kappa; Alexa Fluor 647-labeled in single-step flow cytometry; Cluster C-45) VH: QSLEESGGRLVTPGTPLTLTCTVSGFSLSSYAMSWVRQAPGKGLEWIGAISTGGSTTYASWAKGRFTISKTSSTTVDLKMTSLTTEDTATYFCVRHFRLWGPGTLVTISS VL: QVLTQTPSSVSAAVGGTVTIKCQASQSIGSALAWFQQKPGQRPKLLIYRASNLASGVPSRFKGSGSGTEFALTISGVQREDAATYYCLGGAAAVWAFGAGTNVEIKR ... 86.6
HW-16 chimeric rabbit-human IgG1 LA/LA/PG (antibody, V domains shown, Fc-silenced (L234A/L235A/P329G) IgG1, kappa; Alexa Fluor 647-labeled in single-step flow cytometry; Cluster C-45) VH: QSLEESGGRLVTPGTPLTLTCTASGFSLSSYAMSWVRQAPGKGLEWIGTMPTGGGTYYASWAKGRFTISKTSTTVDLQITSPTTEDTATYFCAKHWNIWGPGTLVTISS VL: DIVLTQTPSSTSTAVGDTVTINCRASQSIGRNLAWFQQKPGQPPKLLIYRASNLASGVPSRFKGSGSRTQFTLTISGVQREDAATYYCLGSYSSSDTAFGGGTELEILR ... 99.1

What value of Cells stained (%) has been recorded for this entry: HW-28 chimeric rabbit-human IgG1 LA/LA/PG (antibody, V domains shown, Fc-silenced (L234A/L235A/P329G) IgG1, lambda; Alexa Fluor 647-labeled in single-step flow cytometry; Cluster C-45) VH: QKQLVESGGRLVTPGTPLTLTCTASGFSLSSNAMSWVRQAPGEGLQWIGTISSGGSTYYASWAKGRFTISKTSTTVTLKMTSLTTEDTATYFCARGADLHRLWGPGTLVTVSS VL: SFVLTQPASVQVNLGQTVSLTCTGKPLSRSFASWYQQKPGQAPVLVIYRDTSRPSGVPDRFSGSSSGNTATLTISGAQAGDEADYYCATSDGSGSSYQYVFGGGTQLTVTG
98.5
